// reported GI50 per item
System: CCRF-CEM leukemia
Test: NCI tumour cell line growth inhibition, 48 h

>>> val("CC(=O)[C@H]1CCC2[C@@H]3CC=C4C[C@@H]([O-])CC[C@]4(C)C3CC[C@@]21C.CC(=O)[C@H]1CCC2[C@@H]3CC=C4C[C@@H]([O-])CC[C@]4(C)C3CC[C@@]21C.CC(=O)[CH-]C(=O)c1ccccc1.CC(=O)[CH-]C(=O)c1ccccc1.Cl.[Ti+4] (stereo partly specified)")
"10.6 µM"
>>> val("C#CCN(c1ccc(C(=O)N[C@@H](CCC(=O)N[C@H](CCC(=O)O)C(=O)O)C(=O)O)cc1)C1CCc2cc3nc(CO)[nH]c(=O)c3cc21 (stereo partly specified)")
"> 36.3 µM"
>>> val("CSc1nc2c(c(=O)n1C)CN(C1CCCCC1)C(=O)C(c1ccccc1)N2 (stereo unspecified)")
"11.3 µM"
>>> val("CCN(CC)CCCC(C)N/C(=C1\\C(=O)NC(=O)\\C1=C(/NC(C)CCCN(CC)CC)c1cccc(OC)c1)c1cccc(OC)c1 (stereo unspecified)")
"0.816 µM"
>>> val("CCCCCCCC/C=C/CCCCCCCC1=NC(C)(C)CN1CCO")
"2.22 µM"

Request: Data request, read-out GI50, for COC(=O)c1oc2c(C(=O)/C=C/c3ccc(OC)cc3)c(OCCN(C)C)ccc2c1C
Response: 2.24 µM
